// provenance: patent US9326506B2

test system: rice; assay: Low temperature assay on rice seedlings; type: in vivo; conditions: 0.001 mg/l, 3 °C, 9 days
QUANTITY_MEASURED: Area of leaf (cm^2)
Return type: number; implicit unit cm^2.

Worked cases, Area of leaf given:
COMPOUND: CC(C)(O)CC[C@@H](O)[C@](C)(O)[C@H]1CC[C@@]2(O)[C@@H]3CC(=O)[C@@H]4C[C@@H](O)[C@@H](O)C[C@]4(C)[C@H]3CC[C@]12C
TARGET_ENTITY: rice
QUANTITY_MEASURED: Area of leaf
MEASURED_RESULT: 12.6
//
COMPOUND: CC[C@@H](C(C)C)[C@@H](O)[C@H](O)[C@@H](C)[C@H]1CCC2C3COC(=O)C4C[C@H](O)[C@H](O)C[C@]4(C)C3CC[C@@]21C (stereo partly drawn)
TARGET_ENTITY: rice
QUANTITY_MEASURED: Area of leaf
MEASURED_RESULT: 12.4

What does the record list as Area of leaf for CC(C)[C@H](C)[C@@H](O)[C@H](O)[C@@H](C)[C@H]1CCC2C3CC(=O)C4C[C@H](O)CC[C@]4(C)C3CC[C@@]21C (stereo partly drawn) ?
12.2
